Molecular target: Mu-type opioid receptor (Homo sapiens)
Sequence (P35372 whole entry): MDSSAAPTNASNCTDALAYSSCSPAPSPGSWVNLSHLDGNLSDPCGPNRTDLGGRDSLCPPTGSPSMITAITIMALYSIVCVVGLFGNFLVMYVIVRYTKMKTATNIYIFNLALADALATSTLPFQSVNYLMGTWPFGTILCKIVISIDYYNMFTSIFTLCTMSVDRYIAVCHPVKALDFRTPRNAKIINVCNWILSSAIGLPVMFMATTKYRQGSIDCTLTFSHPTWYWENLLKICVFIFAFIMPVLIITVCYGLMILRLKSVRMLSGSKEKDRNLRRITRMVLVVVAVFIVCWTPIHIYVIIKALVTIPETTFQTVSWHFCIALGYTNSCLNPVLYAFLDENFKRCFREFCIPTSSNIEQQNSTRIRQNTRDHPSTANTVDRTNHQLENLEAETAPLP
Test Readout: pKi
Note: pKi values are expressed as the negative base-10 logarithm of concentration in M.

Note to self: pKi of O=Cc1ccc(C(=O)Nc2cccc3c4c([nH]c23)C2Oc3c(O)ccc5c3[C@@]23CCN(CC2CC2)[C@H](C5)[C@]3(O)C4)cc1C=O (stereo partly specified) with Mu-type opioid receptor (Homo sapiens) was 7.83

###

Molecular target: Kappa-type opioid receptor (Homo sapiens, UniProt P41145)
Sequence (P41145 whole entry): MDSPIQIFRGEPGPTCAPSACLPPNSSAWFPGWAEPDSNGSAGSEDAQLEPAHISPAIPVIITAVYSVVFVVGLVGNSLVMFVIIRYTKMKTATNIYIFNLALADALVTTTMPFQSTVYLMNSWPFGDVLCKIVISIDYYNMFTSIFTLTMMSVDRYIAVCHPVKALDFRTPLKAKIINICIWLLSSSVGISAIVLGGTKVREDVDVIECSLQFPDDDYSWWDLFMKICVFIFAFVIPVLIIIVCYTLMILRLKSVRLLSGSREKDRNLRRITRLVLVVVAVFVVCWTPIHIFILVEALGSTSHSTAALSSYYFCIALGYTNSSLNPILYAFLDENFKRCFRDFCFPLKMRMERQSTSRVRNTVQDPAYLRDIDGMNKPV
Test Readout: Ki

The observed Ki for O=Cc1ccc(C(=O)Nc2cccc3c4c([nH]c23)C2Oc3c(O)ccc5c3[C@@]23CCN(CC2CC2)[C@H](C5)[C@]3(O)C4)cc1C=O (stereo partly specified) when tested with Kappa-type opioid receptor (Homo sapiens, UniProt P41145) stands at 20.1 nM

###

Target: Delta-type opioid receptor (Homo sapiens, UniProt P41143)
Sequence (P41143 whole entry): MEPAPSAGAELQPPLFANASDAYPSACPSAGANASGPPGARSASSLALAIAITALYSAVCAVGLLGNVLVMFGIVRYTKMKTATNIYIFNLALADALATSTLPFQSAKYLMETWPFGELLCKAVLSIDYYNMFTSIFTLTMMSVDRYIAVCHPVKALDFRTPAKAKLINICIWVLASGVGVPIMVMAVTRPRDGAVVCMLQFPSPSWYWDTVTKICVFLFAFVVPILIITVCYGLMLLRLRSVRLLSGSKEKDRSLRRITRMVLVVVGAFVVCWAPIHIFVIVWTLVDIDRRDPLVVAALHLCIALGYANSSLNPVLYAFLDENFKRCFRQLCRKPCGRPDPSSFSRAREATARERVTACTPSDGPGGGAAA
Assay: Binding affinity towards delta-opioid receptor from CHO cells
Type: cell-based, Cricetulus griseus
Test Readout: Ki (nM)
Answer in nM, number only, no unit symbol.

Measured Ki for this entry O=Cc1ccc(C(=O)Nc2cccc3c4c([nH]c23)C2Oc3c(O)ccc5c3[C@@]23CCN(CC2CC2)[C@H](C5)[C@]3(O)C4)cc1C=O (stereo partly specified) on Delta-type opioid receptor (Homo sapiens, UniProt P41143): 1.9
